- ASSAY_SYSTEM: MAPK14 (human)
- METHOD: Inhibition of LPS Stimulated TNF Production by U937 Cells
- MEASUREMENT_PARAMETERS: concentration not given here
ENDPOINT: inhibition (%)

MOL	inhibition, %
O=C(NCCc1[nH]nc(-c2ccc(F)cc2)c1-c1ccncc1)c1ccccc1I	23

(a) Cc1cccc(S(=O)(=O)N2CCC(c3[nH]nc(-c4ccc(F)cc4)c3-c3ccncc3)CC2)c1
(b) CC1(C)[C@@H]2CC[C@]1(CS(=O)(=O)NCCc1[nH]nc(-c3ccc(F)cc3)c1-c1ccncc1)C(=O)C2
a or b : whose inhibition is greater? Answer by quoting the chosen item's label.
b
(b: 44%, a: 1%)

(A) CCOC(=O)c1ccc(NC(=O)NCCc2[nH]nc(-c3ccc(F)cc3)c2-c2ccncc2)cc1
(B) C[C@H](NS(=O)(=O)c1cc(Cl)cc(Cl)c1O)c1[nH]nc(-c2ccc(F)cc2)c1-c1ccncc1
A or B : whose inhibition is greater? Answer by quoting the chosen item's label.
B
(B: 76%, A: 17%)

(a) Cc1c(-c2ccncc2)c(-c2ccc(F)cc2)nn1CC(=O)N1CCC[C@H]1CN1CCCC1
(b) C[C@H](NS(=O)(=O)c1ccc(F)cc1Cl)c1[nH]nc(-c2ccc(F)cc2)c1-c1ccncc1
(c) C[C@H](NC(=O)c1ccc(C(F)(F)F)cc1)c1[nH]nc(-c2ccc(F)cc2)c1-c1ccncc1
Sort the 3 molecules by inhibition; largest first, smallest last. Please list the labels in the order you were asked to rank them.
b, c, a
(b: 85%, c: 29%, a: 10%)

###

- ASSAY_SYSTEM: MAPK14 (human)
- METHOD: Inhibition of MAPK14 Kinase Activity by PHAS-I Assay
- MEASUREMENT_PARAMETERS: concentration not given here
ENDPOINT: inhibition (%)

Consider the following illustrative entries.
COMPOUND	inhibition (%)
O=C(NCc1[nH]nc(-c2ccc(F)cc2)c1-c1ccncc1)[C@@H]1CCCN1C(=O)C(F)(F)F	96
Cc1c(-c2ccncc2)c(-c2ccc(F)cc2)nn1CC(=O)N(C)CCCC1c2ccccc2CCc2ccccc21	50
CC(=O)O[C@H](C)C(=O)NCCCc1[nH]nc(-c2ccc(F)cc2)c1-c1ccncc1	82
CCCCS(=O)(=O)NCCCc1[nH]nc(-c2ccc(F)cc2)c1-c1ccncc1	87
COc1ccc(CC(=O)NCCCc2[nH]nc(-c3ccc(F)cc3)c2-c2ccncc2)cc1	70
Cc1c(-c2ccncc2)c(-c2ccc(F)cc2)nn1CC(=O)Nc1cc(C(F)(F)F)cc(C(F)(F)F)c1	79
O=S(=O)(NCc1[nH]nc(-c2ccc(F)cc2)c1-c1ccncc1)c1cc(Br)c(Br)s1	77

(P) O=S(=O)(NCCCc1[nH]nc(-c2ccc(F)cc2)c1-c1ccncc1)c1ccccc1F
(Q) Cc1c(-c2ccncc2)c(-c2ccc(F)cc2)nn1CC(=O)NC1CCC(C(C)(C)C)CC1 (centres undefined)
From the items above, decide which of P and Q has the lower inhibition reading. Answer by quoting the chosen item's label.
Q

###

- ASSAY_SYSTEM: MAPK14 (human)
- METHOD: Inhibition of LPS Stimulated TNF Production by U937 Cells
pIC50: −log10 of the molar value.
ENDPOINT: pIC50

MOL	pIC50
O=C(c1ccc(Br)cc1)N1CCC(c2[nH]nc(-c3ccc(F)cc3)c2-c2ccncc2)CC1	5.86

(P) Cn1cc(-c2ccncc2)c(-c2cccc(F)c2)n1
(Q) CC(C)=CC(=O)NCCCc1[nH]nc(-c2ccc(F)cc2)c1-c1ccncc1
(R) OCCCNc1cc(-c2c[nH]nc2-c2ccc(F)cc2)ccn1
# rank by pIC50, ascending (min first) Please list the labels in the order you were asked to rank them.
Q, P, R

(A) CC(=O)OC(C)(C)C(=O)NCc1[nH]nc(-c2ccc(F)cc2)c1-c1ccncc1
(B) C[C@H](NC(=O)N1CCCC1)c1[nH]nc(-c2ccc(F)cc2)c1-c1ccncc1
(C) O=C(NCc1[nH]nc(-c2ccc(F)cc2)c1-c1ccncc1)c1ccccc1C(F)(F)F
Sort the 3 molecules by pIC50; largest first, smallest last. Please list the labels in the order you were asked to rank them.
A, B, C

(a) c1cc(-c2c[nH]nc2-c2ccc3c(c2)OCO3)ccn1
(b) C[C@@H](NC(=O)NCc1ccccc1)c1[nH]nc(-c2ccc(F)cc2)c1-c1ccncc1
From the items above, decide which of a and b has the lower pIC50 reading. Answer by quoting the chosen item's label.
b

###

- ASSAY_SYSTEM: MAPK14 (human)
- METHOD: Inhibition of LPS Stimulated TNF Production by U937 Cells
- MEASUREMENT_PARAMETERS: concentration not given here
ENDPOINT: inhibition (%)

Consider the following illustrative entries.
MOL	MEASURE_UNIT	inhibition
CC(C)S(=O)(=O)N[C@H](C)c1[nH]nc(-c2ccc(F)cc2)c1-c1ccncc1	%	52
O=C(NCCc1[nH]nc(-c2ccc(F)cc2)c1-c1ccncc1)C1CCCC1	%	45

(1) Cc1c(-c2ccncc2)c(-c2ccc(F)cc2)nn1CC(=O)[C@H]1CCCN1C(=O)OCc1ccccc1
(2) O=C(NCCc1[nH]nc(-c2ccc(F)cc2)c1-c1ccncc1)Nc1ccccc1-c1ccccc1
(3) CC1(C)[C@@H]2CC[C@]1(S(=O)(=O)NCCc1[nH]nc(-c3ccc(F)cc3)c1-c1ccncc1)C(=O)C2
# rank by inhibition, ascending (min first) Please list the labels in the order you were asked to rank them.
1, 2, 3
(1: 19%, 2: 35%, 3: 56%)

###

- ASSAY_SYSTEM: UniProtKB Q16539
- METHOD: Inhibition of MAPK14 Kinase Activity by PHAS-I Assay
- MEASUREMENT_PARAMETERS: concentration not given here
ENDPOINT: inhibition (%)

COMPOUND	inhibition, %
CCOC(=O)c1cc(-c2ccc(NC(=O)Cn3nc(-c4ccc(F)cc4)c(-c4ccncc4)c3C)cc2)oc1C	87

(A) O=C(NCc1[nH]nc(-c2ccc(F)cc2)c1-c1ccncc1)Nc1ccccc1F
(B) COc1ccccc1C(=O)NCCc1[nH]nc(-c2ccc(F)cc2)c1-c1ccncc1
(C) CC(C)OC(=O)NCCc1[nH]nc(-c2ccc(F)cc2)c1-c1ccncc1
Sort the 3 compounds by inhibition; largest first, smallest last. Please list the labels in the order you were asked to rank them.
C, B, A
(C: 85%, B: 53%, A: 23%)

###

- ASSAY_SYSTEM: MAPK14 (human) (UniProt Q16539)
- Sequence (Q16539 whole entry, looked up): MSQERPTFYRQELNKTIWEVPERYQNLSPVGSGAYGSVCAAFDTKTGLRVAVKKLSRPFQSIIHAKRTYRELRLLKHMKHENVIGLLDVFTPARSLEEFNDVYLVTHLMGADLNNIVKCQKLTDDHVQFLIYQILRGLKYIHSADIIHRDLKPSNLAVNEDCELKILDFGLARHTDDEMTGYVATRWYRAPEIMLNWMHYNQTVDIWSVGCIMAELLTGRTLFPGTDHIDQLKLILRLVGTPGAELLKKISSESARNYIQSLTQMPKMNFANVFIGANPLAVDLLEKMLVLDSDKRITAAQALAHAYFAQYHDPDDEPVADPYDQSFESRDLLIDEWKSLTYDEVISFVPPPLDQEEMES
- METHOD: Inhibition of LPS Stimulated TNF Production by U937 Cells
- MEASUREMENT_PARAMETERS: concentration not given here
ENDPOINT: inhibition (%)

COMPOUND	MEASURE_UNIT	inhibition
Cc1cc(C)c(S(=O)(=O)N[C@@H](C)c2[nH]nc(-c3ccc(F)cc3)c2-c2ccncc2)c(C)c1	%	87
C[C@H](NC(=O)c1cc(F)ccc1F)c1[nH]nc(-c2ccc(F)cc2)c1-c1ccncc1	%	44
Cc1c(-c2ccncc2)c(-c2ccc(F)cc2)nn1CC(=O)N[C@@H](C)C1CCCCC1	%	38
C[C@H](NS(=O)(=O)c1ccccc1S(C)(=O)=O)c1[nH]nc(-c2ccc(F)cc2)c1-c1ccncc1	%	73

(a) O=C(NCCCc1[nH]nc(-c2ccc(F)cc2)c1-c1ccncc1)C1CCCC1
(b) C=CCNC(=O)N[C@@H](C)c1[nH]nc(-c2ccc(F)cc2)c1-c1ccncc1
(c) CCS(=O)(=O)N[C@H](Cc1ccccc1)c1[nH]nc(-c2ccc(F)cc2)c1-c1ccncc1
(d) CS(=O)(=O)c1ccccc1S(=O)(=O)NCc1[nH]nc(-c2ccc(F)cc2)c1-c1ccncc1
(e) Cc1c(-c2ccncc2)c(-c2ccc(F)cc2)nn1CC(=O)N1CCCCC1CCN1CCCCC1 (centres undefined)
# rank by inhibition, ascending (min first) Please list the labels in the order you were asked to rank them.
c, e, d, b, a
(c: 5%, e: 13%, d: 23%, b: 42%, a: 66%)

###

- ASSAY_SYSTEM: MAPK14 (human)
- METHOD: Inhibition of MAPK14 Kinase Activity by PHAS-I Assay
- MEASUREMENT_PARAMETERS: concentration not given here
ENDPOINT: inhibition (%)

MOL	ENDPOINT	VALUE_REPORTED
O=C(NCCCc1[nH]nc(-c2ccc(F)cc2)c1-c1ccncc1)c1ccc(F)c(F)c1F	inhibition	80
CCCNC(=O)NCCCc1[nH]nc(-c2ccc(F)cc2)c1-c1ccncc1	inhibition	88
COC(=O)c1ccccc1NC(=O)NCCc1[nH]nc(-c2ccc(F)cc2)c1-c1ccncc1	inhibition	76
O=S(=O)(NCCCc1[nH]nc(-c2ccc(F)cc2)c1-c1ccncc1)C(F)(F)F	inhibition	74
CN(C)C(=O)NCCCc1[nH]nc(-c2ccc(F)cc2)c1-c1ccncc1	inhibition	90
CCc1ccccc1NC(=O)NCCc1[nH]nc(-c2ccc(F)cc2)c1-c1ccncc1	inhibition	79
C=Cc1ccc(S(=O)(=O)NCc2[nH]nc(-c3ccc(F)cc3)c2-c2ccncc2)cc1	inhibition	67
CCCOC(=O)NCCCc1[nH]nc(-c2ccc(F)cc2)c1-c1ccncc1	inhibition	90
Cc1c(-c2ccncc2)c(-c2ccc(F)cc2)nn1CC(=O)Nc1cc(F)cc(F)c1	inhibition	75
O=C(NCCc1[nH]nc(-c2ccc(F)cc2)c1-c1ccncc1)C1CCCC1	inhibition	79

// provenance: the Kinase Knowledgebase extract (Sharma et al. 2016)
